# TGI per record follows
- Test system: U251 CNS
- methodNotes: NCI tumour cell line growth inhibition, 48 h

Input CC(C)(C)C(=O)C(C(=O)C(C)(C)C)C(=O)C(C)(C)C . Output TGI: > 100 µM

Input Cc1ccc(C)n1-n1c(Cc2ccccc2)n[nH]c1=O . Output TGI: > 100 µM

Input CCC1(c2c(F)c(F)c(N)c(F)c2F)CCC(=O)NC1=O (stereo not drawn) . Output TGI: > 100 µM

Input O=C(/C=C/c1cccnc1)NCCCCC1CCCN(C(=O)c2ccccc2)C1 (stereo not drawn) . Output TGI: > 100 µM

Input O=c1c2ccccc2n(C[C@H]2CO2)c2ccccc12 . Output TGI: 7.3 µM
